The values you see were collected from patent US11739098B2.

Target: human TLR8 (Homo sapiens, UniProt Q9NR97)
Sequence (Q9NR97 27-1041): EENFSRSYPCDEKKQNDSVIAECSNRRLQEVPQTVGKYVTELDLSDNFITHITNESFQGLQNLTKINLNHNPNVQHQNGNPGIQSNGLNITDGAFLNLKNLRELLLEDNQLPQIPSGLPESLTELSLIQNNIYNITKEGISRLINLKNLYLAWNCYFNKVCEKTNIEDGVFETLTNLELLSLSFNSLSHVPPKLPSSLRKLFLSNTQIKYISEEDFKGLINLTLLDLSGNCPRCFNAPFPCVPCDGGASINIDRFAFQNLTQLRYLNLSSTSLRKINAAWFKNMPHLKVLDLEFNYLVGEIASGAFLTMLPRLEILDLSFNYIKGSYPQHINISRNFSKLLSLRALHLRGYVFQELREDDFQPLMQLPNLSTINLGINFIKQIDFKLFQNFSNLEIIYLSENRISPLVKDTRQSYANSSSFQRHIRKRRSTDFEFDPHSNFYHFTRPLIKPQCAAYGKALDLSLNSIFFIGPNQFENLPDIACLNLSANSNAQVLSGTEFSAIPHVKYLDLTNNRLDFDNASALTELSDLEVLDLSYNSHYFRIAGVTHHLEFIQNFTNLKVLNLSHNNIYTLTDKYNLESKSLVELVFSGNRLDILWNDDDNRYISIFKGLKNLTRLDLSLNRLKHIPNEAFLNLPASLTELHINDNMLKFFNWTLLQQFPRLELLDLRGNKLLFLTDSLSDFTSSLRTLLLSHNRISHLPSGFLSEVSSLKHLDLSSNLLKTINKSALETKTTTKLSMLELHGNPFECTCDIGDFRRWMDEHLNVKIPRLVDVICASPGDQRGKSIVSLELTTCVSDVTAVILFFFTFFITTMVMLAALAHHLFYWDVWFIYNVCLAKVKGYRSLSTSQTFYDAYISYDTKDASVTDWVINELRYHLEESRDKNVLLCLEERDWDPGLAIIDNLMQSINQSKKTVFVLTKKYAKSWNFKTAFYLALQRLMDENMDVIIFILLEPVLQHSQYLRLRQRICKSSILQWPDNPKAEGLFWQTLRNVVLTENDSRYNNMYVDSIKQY
Test: TLR8 inhibition reporter assay (HEK-Blue cells, SEAP reporter, R848 stimulation)
Settings: HEK-Blue cells overexpressing human TLR8, SEAP reporter, R848 15.9 μM
ENDPOINT LABEL: IC50

Illustrative cases are given below, each with its answer.
MOLECULE	REPORTED VALUE
CCc1c(-c2ccnc3[nH]ccc23)[nH]c2ccc(C3CCN(C4CCN(C)CC4)CC3)cc12	< 100 nM
Cc1ccnc2c1c(-c1[nH]c3ccc(C4CCNCC4)cc3c1C(C)C)cn2C	< 100 nM
CC(C)c1c(-c2ccnc3[nH]ncc23)[nH]c2cc(C(F)(F)F)c(C3CCN(CC4CCN(C(C)C)C4)CC3)cc12 (centres unmarked)	100 to 1000 nM
CC(C)c1c(-c2ccc3[nH]nnc3c2)[nH]c2ccc(C3CCNCC3)cc12	< 100 nM
CC(C)c1c(-c2cc(F)c3nccn3c2)[nH]c2ccc(C3CCN(C(=O)C[C@H](C)O)CC3)cc12	1000 to 50000 nM

Input CNC(=O)CN1CCC(c2ccc3[nH]c(-c4cc(F)c5nccn5c4)c(CC(F)F)c3c2)CC1 , output reported IC50. 100 to 1000 nM

Input Cc1cn2cc(-c3[nH]c4ccc(C5CCN(C(=O)CN(C)C)CC5)cc4c3C(C)C)ccc2n1 , output reported IC50. 100 to 1000 nM

Input Cc1cc(-c2[nH]c3ccc(C4CCNCC4)cc3c2C(C)C)cn2nnnc12 , output reported IC50. < 100 nM
